- System: SF-539 CNS
- MEASUREMENT DESCRIPTION: NCI tumour cell line growth inhibition, 48 h
VALUE KIND: TGI (µM)
One number for each entry, in µM.

The value of TGI measured for the compound O=[N+]([O-])c1cccc(C2N3CCCCC3[C@@H]3c4[nH]c5ccccc5c4CCN23)c1 (stereo partly drawn) turned out to be 29.7

For each of the compounds below, state TGI.
1. O=C(N/N=C/c1ccc2c(c1)OCO2)Nc1ccccc1Cl
2. O=c1c2cc(Cl)ccc2oc2ccc(OCCCCCN3CCCCC3)cc12
3. CCCCCCCCC[C@@H]1CC(=O)OCC2OC(O[C@H](CCCCCCCCC)CC(=O)OCC3OC(O[C@H](CCCCCCCCC)CC(=O)OCC4OC(O1)C(O)C(O)C4O)C(O)C(O)C3O)C(O)C(O)C2O (stereo partly drawn)
4. CC(C)=CCC[C@@H](C)C1=C(O)C(O)C(C)=C2N=C(c3ccccc3)C(=O)OC21 (stereo partly drawn)

Result:
1. 24.8
2. 10.6
3. 23.2
4. 13.8

Hi, could you look up TGI for each item in my list?
1. COc1ccc(/C=N\NC(=O)CN2CCN(c3cc4c(cc3F)c(=O)c(C(=O)N/N=C/c3ccc(OC)c(OC)c3)cn4C3CC3)CC2)cc1OC
2. CC(O)c1cccc(NCc2c3ccccc3c(=O)n3c2oc2ccccc23)c1 (stereo not drawn)

Result:
6.46
3.43
